system under test: Avi-KRAS G12V (1-169) GppNHp/RAF1 RBD-3xFLAG (52-151) (Homo sapiens, UniProt P01116, G12V)
Construct: Avi-KRAS G12V (1-169)
Sequence (P01116 1-169 isoform P01116-2 G12V): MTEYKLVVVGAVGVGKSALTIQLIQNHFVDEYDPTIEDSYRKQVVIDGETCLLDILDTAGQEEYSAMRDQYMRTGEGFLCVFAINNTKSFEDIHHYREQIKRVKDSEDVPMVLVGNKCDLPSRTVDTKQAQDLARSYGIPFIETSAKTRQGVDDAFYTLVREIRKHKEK
experiment summary: Raf1-KRAS G12V-GppNHP disruption HTRF assay (Biological Example 1)
Assay type: binding
recorded conditions: KRAS G12V-GppNHp/RAF1 RBD HTRF
recorded endpoint: IC50

molecule: CCN(c1nc(OC[C@@]23CCCN2C[C@H](F)C3)nc2c(F)c(-c3ccc(F)c4sc(N)c(C#N)c34)c(C(F)(F)F)cc12)[C@H]1C[C@H]2COC(=O)N2C1 (atropisomer, axis not shown; (aS)) [Compound 518]
assay value: < 100 nM

Input line: Indicate the recorded IC50 value for this molecule: C[C@@H]1[C@H](N(C)c2nc(OC[C@@]34CCCN3C[C@H](F)C4)nc3c(F)c(-c4ccc(F)c5sc(N)c(C#N)c45)c(Cl)cc23)CCN1C(=O)C(C)(C)F [Compound 421]
Output line: 1000 to 10000 nM

Input line: Indicate the recorded IC50 value for this molecule: C[C@@H]1[C@H](N(C)c2nc(OC[C@@]34CCCN3C[C@H](F)C4)nc3c(F)c(-c4ccc(F)c5sc(N)c(C#N)c45)c(C(F)(F)F)cc23)CCN1C(=O)N(C)C [Compound 409]
Output line: 100 to 1000 nM

Input line: Indicate the recorded IC50 value for this molecule: N#Cc1c(N)sc2c(F)ccc(-c3c(C(F)(F)F)cc4c(N5[C@@H]6CO[C@H]7C6OC[C@H]75)nc(OC[C@@]56CCCN5C[C@H](F)C6)nc4c3F)c12 [Compound 382]
Output line: 1000 to 10000 nM

###

system under test: Avi-KRAS G12R (1-169) GppNHp/RAF1 RBD-3xFLAG (52-151) (Homo sapiens, UniProt P01116, G12R)
Construct: Avi-KRAS G12R (1-169)
Sequence (P01116 1-169 isoform P01116-2 G12R): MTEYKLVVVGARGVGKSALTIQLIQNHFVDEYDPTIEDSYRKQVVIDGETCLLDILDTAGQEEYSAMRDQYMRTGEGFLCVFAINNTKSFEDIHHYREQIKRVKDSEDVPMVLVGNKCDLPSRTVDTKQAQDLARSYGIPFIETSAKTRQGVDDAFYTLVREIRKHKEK
experiment summary: Raf1-KRAS G12R-GppNHP disruption HTRF assay (Biological Example 1)
Assay type: binding
recorded conditions: KRAS G12R-GppNHp/RAF1 RBD HTRF
Entries and their IC50

Example entries begin here.
molecule: CC(=O)N1C[C@@H](N(C)c2nc(OC[C@@]34CCCN3C[C@H](F)C4)nc3c(F)c(-c4ccc(F)c5sc(N)c(C#N)c45)c(C(F)(F)F)cc23)C[C@H]1CC#N
IC50: 1000 to 10000 nM
//
molecule: CN(C)C(=O)c1nn2c(c1Cl)CN(c1nc(OC[C@@]34CCCN3C[C@H](F)C4)nc3c(F)c(-c4ccc(F)c5sc(N)c(C#N)c45)c(C(F)(F)F)cc13)CC2
IC50: < 100 nM
//
molecule: CCN(c1nc(OC[C@@]23CCCN2C[C@H](F)C3)nc2c(F)c(-c3ccc(F)c4sc(N)c(C#N)c34)c(C(F)(F)F)cc12)[C@H]1CCN(C(=O)N2CCCC2)C1
IC50: < 100 nM
//
molecule: CN1CC(F)(F)C[C@H]1COc1nc(N2CC3CC(C2)O3)c2cc(C(F)(F)F)c(-c3ccc(F)c4sc(N)c(C#N)c34)c(F)c2n1
IC50: > 10000 nM
//
molecule: N#Cc1c(N)sc2c(F)ccc(-c3c(C(F)(F)F)cc4c(N5CCN6C(=O)CCC6C5)nc(OCC56CCCN5CC(F)C6)nc4c3F)c12 (centres unmarked) [Compound 430]
IC50: 100 to 1000 nM
//
molecule: N#Cc1c(N)sc2c(F)ccc(-c3c(C(F)(F)F)cc4c(N5CCS(=N)(=O)CC5)nc(OC[C@@]56CCCN5C[C@H](F)C6)nc4c3F)c12
IC50: 100 to 1000 nM

Input line: Indicate the recorded IC50 value for this molecule: CN(C)C(=O)c1nc2c(s1)CN(c1nc(OCC34CCCN3CC(F)C4)nc3c(F)c(-c4ccc(F)c5sc(N)c(C#N)c45)c(C(F)(F)F)cc13)CC2 (centres unmarked)
Output line: > 10000 nM

Input line: Indicate the recorded IC50 value for this molecule: N#Cc1c(N)sc2c(F)ccc(-c3c(C(F)(F)F)cc4c(N5CC6OCC5C6O)nc(OC[C@@]56CCCN5C[C@H](F)C6)nc4c3F)c12 (some centres unmarked)
Output line: 100 to 1000 nM

Input line: Indicate the recorded IC50 value for this molecule: CCN(c1nc(OC[C@@]23CCCN2C[C@H](F)C3)nc2c(F)c(-c3ccc(F)c4sc(N)c(C#N)c34)c(C(F)(F)F)cc12)[C@H]1CCN(C(=O)C2(F)CC2)C1 (atropisomer, axis not shown)
Output line: < 100 nM

Input line: Indicate the recorded IC50 value for this molecule: CCN(c1nc(OC[C@@]23CCCN2C[C@H](F)C3)nc2c(F)c(-c3ccc(F)c4sc(N)c(C#N)c34)c(C(F)(F)F)cc12)[C@@H]1C[C@H](C)N(C(=O)N(C)C)C1 (atropisomer, axis not shown)
Output line: 1000 to 10000 nM

Input line: Indicate the recorded IC50 value for this molecule: CCN(c1nc(OC[C@@]23CCCN2C[C@H](F)C3)nc2c(F)c(-c3ccc(F)c4sc(N)c(C#N)c34)c(C(F)(F)F)cc12)[C@H]1C[C@H]2COC(=O)N2C1 (atropisomer, axis not shown; (aS))
Output line: < 100 nM

Input line: Indicate the recorded IC50 value for this molecule: CCN(c1nc(OC[C@@]23CCCN2C[C@H](F)C3)nc2c(F)c(-c3ccc(F)c4sc(N)c(C#N)c34)c(C(F)(F)F)cc12)[C@@H]1C[C@@H](C)N(C(C)=O)C1 (atropisomer, axis not shown)
Output line: 100 to 1000 nM

Input line: Indicate the recorded IC50 value for this molecule: "CN(C)C(=O)c1nc2n(n1)CCN(c1nc(OC[C@@]34CCCN3C[C@H](F)C4)nc3c(F)c(-c4ccc(F)c5sc(N)c(C#N)c45)c(C(F)(F)F)cc13)C2"
Output line: 100 to 1000 nM

Input line: Indicate the recorded IC50 value for this molecule: "CCN(c1nc(OC[C@@]23CCCN2C[C@H](F)C3)nc2c(F)c(-c3ccc(F)c4sc(N)c(C#N)c34)c(C(F)(F)F)cc12)[C@H]1CC(=O)N(C2CC2)C1"
Output line: 1000 to 10000 nM

Input line: Indicate the recorded IC50 value for this molecule: "N#Cc1c(N)sc2c(F)ccc(-c3c(C(F)(F)F)cc4c(N5C[C@H]6C[C@H](O)[C@@H]5C6)nc(OC[C@@]56CCCN5C[C@H](F)C6)nc4c3F)c12"
Output line: 100 to 1000 nM

Input line: Indicate the recorded IC50 value for this molecule: "CCN(c1nc(OC[C@@]23CCCN2C[C@H](F)C3)nc2c(F)c(-c3ccc(F)c4sc(N)c(C#N)c34)c(C(F)(F)F)cc12)[C@@H]1CCN(C(=O)C(C)C)C1"
Output line: 100 to 1000 nM

Input line: Indicate the recorded IC50 value for this molecule: "CCN(c1nc(OC[C@@]23CCCN2C[C@H](F)C3)nc2c(F)c(-c3ccc(F)c4sc(N)c(C#N)c34)c(C(F)(F)F)cc12)[C@H]1CC(=O)N(CC(F)F)C1"
Output line: 100 to 1000 nM

###

Entries and their pIC50
Test system: SW620 cells (KRAS G12V)
experiment summary: Cell-based pERK HTRF assay in SW620 cell (Biological Example 4)
recorded conditions: SW620 (KRAS G12V) cells, pERK HTRF; class symbols
pIC50: −log10 of the molar value.

compound: CC1c2cc(C(=O)N(C)C)nn2CCN1c1nc(OCC23CCCN2CC(F)C3)nc2c(F)c(-c3ccc(F)c4sc(N)c(C#N)c34)c(C(F)(F)F)cc12 (centres unmarked) [Compound 701]
system under test: SW620 cells (KRAS G12V)
pIC50: > 7.00

Input line: Indicate the recorded pIC50 value for this compound: CCN(c1nc(OCC23CCCN2CC(F)C3)nc2c(F)c(-c3ccc(F)c4sc(N)c(C#N)c34)c(C(F)(F)F)cc12)C1CC(C)N(C(=O)N2CC(F)C2)C1 (centres unmarked) [Compound 759]
Output line: > 7.00

###

system under test: Avi-KRAS WT (1-169) GppNHp/RAF1 RBD-3xFLAG (52-151) (Homo sapiens)
Construct: Avi-KRAS WT (1-169)
Sequence (P01116 1-169 isoform P01116-2): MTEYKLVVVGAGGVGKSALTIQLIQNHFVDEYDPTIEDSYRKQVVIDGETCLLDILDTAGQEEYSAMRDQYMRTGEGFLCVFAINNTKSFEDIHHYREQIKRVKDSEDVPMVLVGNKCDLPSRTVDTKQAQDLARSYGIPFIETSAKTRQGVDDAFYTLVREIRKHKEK
experiment summary: Raf1-KRAS WT-GppNHP disruption HTRF assay (Biological Example 1)
Assay type: binding
recorded conditions: KRAS WT, GppNHp-loaded; class symbols
recorded endpoint: IC50

Example entries begin here.
compound: CN(Cc1cccnc1)c1nc(OC[C@@]23CCCN2C[C@H](F)C3)nc2c(F)c(-c3ccc(F)c4sc(N)c(C#N)c34)c(C(F)(F)F)cc12 (atropisomer, axis not shown)
assay value: 100 to 1000 nM

compound: CCN(c1nc(OC[C@@]23CCCN2C[C@H](F)C3)nc2c(F)c(-c3ccc(F)c4sc(N)c(C#N)c34)c(C(F)(F)F)cc12)[C@H]1C[C@H](C)N(C(=O)[C@@H](C)OC)C1 (atropisomer, axis not shown)
assay value: 100 to 1000 nM

compound: CCN(c1nc(OC[C@@]23CCCN2C[C@H](F)C3)nc2c(F)c(-c3ccc(F)c4sc(N)c(C#N)c34)c(C(F)(F)F)cc12)[C@H]1CCN(C(=O)C2CCN(C(C)=O)CC2)C1 (atropisomer, axis not shown)
assay value: < 100 nM

compound: Cc1c(C(=O)N2CCC2)nn2c1CN(c1nc(OCC34CCCN3CC(F)C4)nc3c(F)c(-c4ccc(F)c5sc(N)c(C#N)c45)c(C(F)(F)F)cc13)CC2 (centres unmarked)
assay value: 1000 to 10000 nM

From here, focus on the item given below.
Input line: Indicate the recorded IC50 value for this compound: COC1CN(C(=O)N2CC[C@H](N(c3nc(OC[C@@]45CCCN4C[C@H](F)C5)nc4c(F)c(-c5ccc(F)c6sc(N)c(C#N)c56)c(C(F)(F)F)cc34)C3CC3)C2)C1 (atropisomer, axis not shown)
Output line: 100 to 1000 nM
